# Tested On: MTHFD2 recombinant human enzyme (Homo sapiens, UniProt P13995)
# Sequence (P13995 36-350): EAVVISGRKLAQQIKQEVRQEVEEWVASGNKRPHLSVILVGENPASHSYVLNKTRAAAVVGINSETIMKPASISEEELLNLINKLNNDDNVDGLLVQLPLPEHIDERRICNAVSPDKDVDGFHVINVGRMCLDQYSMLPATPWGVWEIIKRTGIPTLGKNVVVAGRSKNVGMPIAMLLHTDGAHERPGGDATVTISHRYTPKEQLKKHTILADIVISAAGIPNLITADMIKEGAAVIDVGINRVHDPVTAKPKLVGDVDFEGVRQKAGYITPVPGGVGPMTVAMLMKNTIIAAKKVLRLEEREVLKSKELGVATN
# Experiment Description: MTHFD2 inhibition assay (NAD(P)H-Glo luminescence)
pIC50: −log10 of the molar value.
Parameter pIC50: see the listing below.

[[record]]
compound = "COC[C@H]1CN(c2cc(Cl)c3c4c(c(=O)oc3c2C)CN(C(=O)c2ccc(C(=O)NS(=O)(=O)N3CC5(CCC5)C3)c(OC)c2)CC4)CCN1C"
tested_on = "MTHFD2 recombinant human enzyme (Homo sapiens, UniProt P13995)"
result = "7.00 to 8.00"

[[record]]
compound = "CCOc1c(C(=O)NS(=O)(=O)N2CC3CCC2C3)ccc(C(=O)N2CCc3c(c(=O)oc4c(C)c(N5CCN(C)[C@@H](COC)C5)ccc34)C2)c1F (stereo partly shown)"
tested_on = "MTHFD2 recombinant human enzyme (Homo sapiens, UniProt P13995)"
result = "7.00 to 8.00"

[[record]]
compound = "COC[C@H]1CN(c2ccc3c4c(c(=O)oc3c2C)CN(C(=O)c2ccc(C(=O)NS(=O)(=O)C3(C)CC3)c(N3C5CCC3CC5)c2)CC4)CCN1C"
tested_on = "MTHFD2 recombinant human enzyme (Homo sapiens, UniProt P13995)"
result = "7.00 to 8.00"

[[record]]
compound = "COC[C@H]1CN(c2ccc3c4c(c(=O)oc3c2Cl)CN(C(=O)c2ccc(C(=O)NS(=O)(=O)C3(C)CC3)c(OC3CCCC3)c2F)CC4)CCN1C"
tested_on = "MTHFD2 recombinant human enzyme (Homo sapiens, UniProt P13995)"
result = "8.00 to 9.00"

[[record]]
compound = "COC[C@H]1CN(c2cc(F)c3c4c(c(=O)oc3c2C)CN(C(=O)c2cc(OC)c(C(=O)NS(=O)(=O)N3CCCC3)cc2F)CC4)CCN1C"
tested_on = "MTHFD2 recombinant human enzyme (Homo sapiens, UniProt P13995)"
result = "7.00 to 8.00"


Given CCN1CCN(c2ccc3c4c(c(=O)oc3c2C)CN(C(=O)c2ccc(C(=O)NS(=O)(=O)N3CCCC3)c(OC3CCC3)c2F)CC4)C[C@@H]1COC , state its recorded pIC50. 7.00 to 8.00

Given COC[C@H]1CN(c2cc(C)c3c4c(c(=O)oc3c2C)CN(C(=O)c2cc(N(C)C)c(C(=O)NS(=O)(=O)N3CCC(C(F)(F)F)CC3)cc2F)CC4)CCN1C , state its recorded pIC50. 7.00 to 8.00

Given COC[C@H]1CN(c2cc(C)c3c4c(c(=O)oc3c2C)CN(C(=O)c2ccc(OC3CCC3)c(C(=O)NS(=O)(=O)N3CCCC3)c2)CC4)CCN1C , state its recorded pIC50. 6.00 to 7.00

Given COC[C@H]1CN(c2cc(C)c3c4c(c(=O)oc3c2C)CN(C(=O)c2ccc(C(=O)NS(=O)(=O)N3CCCC3)c(OC(F)(F)F)c2F)CC4)CCN1C , state its recorded pIC50. 7.00 to 8.00

Given COC[C@H]1CN(c2cc(Cl)c3c4c(c(=O)oc3c2C)CN(C(=O)c2cc(N(C)C)c(C(=O)NS(=O)(=O)N(C)C3CC3)cc2F)CC4)CCN1C , state its recorded pIC50. 8.00 to 9.00

Given COC[C@H]1CN(c2cc(C)c3c4c(c(=O)oc3c2C)CN(C(=O)c2ccc(C(=O)NS(=O)(=O)N3CCCC3)c(OC3CCCC3)c2F)CC4)CCN1C , state its recorded pIC50. 8.00 to 9.00

Given COC[C@H]1CN(c2cc(C)c3c4c(c(=O)oc3c2C)CN(C(=O)c2ccc(C(=O)NS(=O)(=O)N(C)C)c(N(C)C3CCC3)c2)CC4)CCN1C , state its recorded pIC50. 8.00 to 9.00

Given COC[C@H]1CN(c2ccc3c4c(c(=O)oc3c2C)CN(C(=O)c2ccc(C(=O)NS(=O)(=O)N3[C@H](C)CC[C@H]3C)c(OC3CCC3)c2F)CC4)CCN1C , state its recorded pIC50. 6.00 to 7.00

Given COC[C@H]1CN(c2cc(C)c3c4c(c(=O)oc3c2C)CN(C(=O)c2ccc(C(=O)NS(=O)(=O)N3CCCC3)c(O[C@H]3C[C@@H]5C[C@@H]5C3)c2F)CC4)CCN1C , state its recorded pIC50. 8.00 to 9.00

Given COC[C@H]1CN(c2cc(Cl)c3c4c(c(=O)oc3c2C)CN(C(=O)c2cc(F)c(C(=O)NS(=O)(=O)N3CCCC3)cc2OC)CC4)CCN1C , state its recorded pIC50. 7.00 to 8.00

Given COC[C@H]1CN(c2cc(C)c3c4c(c(=O)oc3c2C)CN(C(=O)c2ccc(C(=O)NS(=O)(=O)N(C)C)c(OC)c2F)CC4)CCN1C , state its recorded pIC50. 7.00 to 8.00

Given COC[C@H]1CN(c2cc(C)c3c4c(c(=O)oc3c2C)CN(C(=O)c2cc(OC3CCCC3)c(C(=O)NS(=O)(=O)N3CCCC3)cc2F)CC4)CCN1C , state its recorded pIC50. 7.00 to 8.00

Given COC[C@H]1CN(c2cc(C)c3c4c(c(=O)oc3c2C)CN(C(=O)c2ccc(C(=O)NS(=O)(=O)C3(C)CC3)c(N3CC5CC5C3)c2F)CC4)CCN1C (stereo partly shown) , state its recorded pIC50. 8.00 to 9.00

Given COC[C@H]1CN(c2cc(C)c3c4c(c(=O)oc3c2C)CN(C(=O)c2cc(Cl)c(C(=O)NS(=O)(=O)N(C)C)c(N3CC5CC5C3)c2)CC4)CCN1C (stereo partly shown) , state its recorded pIC50. 8.00 to 9.00
